Measured values drawn from PubChem BioAssay (EPA / NIEHS) for this set.

- Read-out: Monocyte Chemoattractant Protein-1 (MCP1), CCL2 (gene 6347)
- protocol_notes: BSK_3C_MCP1: BioMAP Diversity Plus: 3C Assay for Monocyte Chemoattractant Protein-1 (MCP1) Biomarker Activity (AID 2283017)
- test_context: primary human endothelial cells (HUVEC); actives raise or lower the signal
- Experimental: BSK_3C is a cell-based, multiplexed-readout assay that uses umbilical vein endothelium, a human vascular primary cell, with measurements taken at 24 hours after chemical dosing in a 96-well plate.BSK_3C_MCP1 is an assay component measured in the BSK_3C assay. It measures MCP-1 antibody related to regulation of gene expression using ELISA technology.Data from the assay component BSK_3C_MCP1 was analyzed into 1 assay endpoint. […]
Active and inactive are the calls of the source. The calls were made as follows: active = hit-call score of the fitted dose curve at least 0.9, where 1 is the maximum; inactive = score below 0.9.
Outcome field: choose from active, inactive

What did this assay record as the result for O=C(NCc1ncc(C(F)(F)F)cc1Cl)c1c(Cl)cccc1Cl ?
inactive

Next up: CCCCCc1ccc(O)cc1
active

Next entry: O=C(O)CCC(F)(F)C(F)(F)C(F)(F)C(F)(F)C(F)(F)C(F)(F)F
inactive

Follow-up item: O=S(=O)(O)C(F)(F)C(F)(F)C(F)(F)C(F)(F)C(F)(F)C(F)(F)C(F)(F)C(F)(F)C(F)(F)C(F)(F)F
inactive

Record: CCCCC=O
inactive

Now consider CCOC(=O)CN[C@@H](C(=O)N1CC[C@H]1C(=O)NCc1ccc(/C(N)=N/O)cc1)C1CCCCC1 and answer again.
inactive

Now give it for CCC(C)c1ccccc1O (centres undefined) too.
inactive

Then what about the molecule CN(C)c1ccc(C(=C2C=CC(=[N+](C)C)C=C2)c2ccccc2)cc1 ?
active

Quick one: C=CC(C)(CCC=C(C)C)OC(C)=O (centres undefined)
active
